Reference source: paper PMC9250534

# TARGET_UNDER_TEST: MDM2 (Homo sapiens)
# Sequence (Q00987 whole entry): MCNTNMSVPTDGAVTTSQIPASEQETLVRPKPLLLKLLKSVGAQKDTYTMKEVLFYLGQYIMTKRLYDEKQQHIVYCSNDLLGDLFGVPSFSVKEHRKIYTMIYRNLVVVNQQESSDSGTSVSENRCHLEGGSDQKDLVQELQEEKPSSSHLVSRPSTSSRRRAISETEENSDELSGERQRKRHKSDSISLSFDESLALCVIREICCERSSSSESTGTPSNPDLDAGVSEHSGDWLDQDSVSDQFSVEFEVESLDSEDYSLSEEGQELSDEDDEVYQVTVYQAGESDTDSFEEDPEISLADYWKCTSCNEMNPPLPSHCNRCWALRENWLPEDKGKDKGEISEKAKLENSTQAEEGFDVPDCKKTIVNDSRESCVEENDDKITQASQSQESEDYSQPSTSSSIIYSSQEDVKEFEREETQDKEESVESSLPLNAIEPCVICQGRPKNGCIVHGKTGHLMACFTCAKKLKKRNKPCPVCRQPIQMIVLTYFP
# TEST_SUMMARY: MDM2 binding screen: displacement of fluorescent p53 peptide probe FP53 (fluorescence polarization)
# CONDITION_NOTES: 10 µM macrocycle concentration; crude acylated macrocycle (scaffold Mpa-AA1-AA2-AA3 x carboxylic acid); p53-based fluorescent peptide, human MDM2
Numbered stars: 1 amine (or outer) side, 2 acyl side, 3 side chain; on linkers, the order of the positions; unused ones are H or OH. Bridge positions count the residues as written; N and C are the ends. Square brackets hold non-standard residues; d marks the D form. Side chains are listed from the residue outwards. Peptide text beside a SMILES is read from it. * marks the point of attachment. Tetrahydropyran4carbonyl = O=C(C1CCOCC1)*; Phenylacetyl(4-Cl) = O=C(Cc1ccc(Cl)cc1)*; Pyrazinecarbonyl = O=C(c1cnccn1)*; X10 = O=C(c1cc(-c2ccco2)[nH]n1)*; Cysteamide = C(CS[*:3])N[*:1]; Me3Gly = C[N+](C)(C)CC(=O)*; X9 = COc1ccc(CC(=O)*)cc1OC; Dap = NC[C@H](N)C(=O)O; Mpa = O=C(O)CCS
OBSERVATION_TYPE: fraction fluorescent probe displaced

A selection of reference data follows.
{"MOLECULE": "NC[C@@H]1NC(=O)[C@@H]2CCCN2C(=O)CCSSCCNC(=O)[C@H](Cc2ccccc2)NC1=O [X-B1-D3-F + No Acid] ([Mpa]P[Dap]F-Cysteamide; disulfide 1-C)", "OBSERVATION_TYPE": "fraction fluorescent probe displaced", "REPORTED": 0.01749}
{"MOLECULE": "O=C(NC[C@@H]1NC(=O)[C@@H]2CCCN2C(=O)CCSSCCNC(=O)[C@H](Cc2c[nH]c3ccccc23)NC1=O)c1cnccn1 [X-B1-D3-W + A2] ([Mpa]P[Dap](Pyrazinecarbonyl)W-Cysteamide; disulfide 1-C)", "OBSERVATION_TYPE": "fraction fluorescent probe displaced", "REPORTED": 0.03807}
{"MOLECULE": "O=C(NC[C@@H]1NC(=O)[C@@H]2CCCN2C(=O)CCSSCCNC(=O)[C@H](Cc2c[nH]c3ccccc23)NC1=O)C1CCOCC1 [X-B1-D3-W + A44] ([Mpa]P[Dap](Tetrahydropyran4carbonyl)W-Cysteamide; disulfide 1-C)", "OBSERVATION_TYPE": "fraction fluorescent probe displaced", "REPORTED": 0.01122}
{"MOLECULE": "O=C(Cc1ccc(Cl)cc1)NC[C@@H]1NC(=O)[C@@H]2CCCN2C(=O)CCSSCCNC(=O)[C@H](Cc2c[nH]c3ccccc23)NC1=O [X-B1-D3-W + A45] ([Mpa]P[Dap](Phenylacetyl(4-Cl))W-Cysteamide; disulfide 1-C)", "OBSERVATION_TYPE": "fraction fluorescent probe displaced", "REPORTED": 0.08387}

(A) O=C(NC[C@@H]1NC(=O)[C@@H]2CCCN2C(=O)CCSSCCNC(=O)[C@H](Cc2ccccc2)NC1=O)c1cc(-c2ccco2)[nH]n1 [X-B1-D3-F + A79] ([Mpa]P[Dap](X10)F-Cysteamide; disulfide 1-C)
(B) C[N+](C)(C)CC(=O)NC[C@@H]1NC(=O)[C@@H]2CCCN2C(=O)CCSSCCNC(=O)[C@H](Cc2c[nH]c3ccccc23)NC1=O [X-B1-D3-W + A92] ([Mpa]P[Dap](Me3Gly)W-Cysteamide; disulfide 1-C)
(C) CC(=O)NCC(=O)NC[C@@H]1NC(=O)[C@@H]2CCCN2C(=O)CCSSCCNC(=O)[C@H](Cc2c[nH]c3ccccc23)NC1=O [X-B1-D3-W + A83] ([Mpa]P[Dap]([Gly-Ac])W-Cysteamide; disulfide 1-C)
(D) COc1ccc(CC(=O)NC[C@@H]2NC(=O)[C@@H]3CCCN3C(=O)CCSSCCNC(=O)[C@H](Cc3ccccc3)NC2=O)cc1OC [X-B1-D3-F + A37] ([Mpa]P[Dap](X9)F-Cysteamide; disulfide 1-C)
(E) O=C(NC[C@@H]1NC(=O)[C@@H]2CCCN2C(=O)CCSSCCNC(=O)[C@H](Cc2ccccc2)NC1=O)C1CCOCC1 [X-B1-D3-F + A44] ([Mpa]P[Dap](Tetrahydropyran4carbonyl)F-Cysteamide; disulfide 1-C)
Put the molecules in ascending order of fraction fluorescent probe displaced. Sort and list the labels as requested. B, E, D, A, C
(B: -0.1286, E: 0.01122, D: 0.02818, A: 0.07009, C: 0.1654)
